- Protocol notes: Solubility of milvexian forms in organic solvent systems
- Assay type: physicochemical
- Condition info: 90/10 DCM/MeOH, 20 °C, organic solvent or mixture, 90/10 DCM/MeOH; temperature 20; read-out: Solubility in mg/mL solution
Endpoint: solubility

| Structure smiles string | Measured value |
| --- | --- |
| C[C@@H]1CCC[C@H](n2cnc(-c3cc(Cl)ccc3-n3cc(Cl)nn3)cc2=O)c2cc(ccn2)-c2c(cnn2C(F)F)NC1=O | > 200 mg/mL |

----------
- Protocol notes: Solubility of milvexian forms in organic solvent systems
- Assay type: physicochemical
- Condition info: 80/20 DCM/MeOH, 20 °C, organic solvent or mixture, thermodynamic from solid, 80/20 DCM/MeOH; 20° C.; 2 weeks; read-out: Solubility in mg/mL solution 2 weeks
Endpoint: solubility at 2 weeks (mg/mL)

| Molecule | Measured value |
| --- | --- |
| C[C@@H]1CCC[C@H](n2cnc(-c3cc(Cl)ccc3-n3cc(Cl)nn3)cc2=O)c2cc(ccn2)-c2c(cnn2C(F)F)NC1=O [P1.Acetone solvate] | 227 |

----------
- Protocol notes: Solubility of milvexian forms in organic solvent systems
- Type: physicochemical
- Condition info: acetone/water 90/10 w/w %, 20 °C, organic solvent or mixture, acetone/water (90/10 w/w %); room temperature; read-out: solubility

| Molecule | Unit symbol | solubility |
| --- | --- | --- |
| C[C@@H]1CCC[C@H](n2cnc(-c3cc(Cl)ccc3-n3cc(Cl)nn3)cc2=O)c2cc(ccn2)-c2c(cnn2C(F)F)NC1=O [Milvexian] | mg/mL | 36 |

----------
- Protocol notes: Solubility of milvexian forms in organic solvent systems
- Assay type: physicochemical
- Condition info: 95/5 DCM/MeOH, 20 °C, organic solvent or mixture, thermodynamic from solid, 95/5 DCM/MeOH; 20° C.; 2 weeks; read-out: Solubility in mg/mL solution 2 weeks
- Description: While heating of the feed solution is a viable solution for production, it is a more complex set-up and with risk of crashing out dissolved solids in case of cold spots and plant safety. […] Based on the data it was determined that 70/30 w/w % DCM/MeOH and 80/20 w/w % were promising solvent mixtures and more accurate solubility determination was carried out for 80/20 w/w % DCM/MeOH for both FORM A and P1.Acetone solvate at 20° C. with the results shown in Table 12 below. […]

| Compound | solubility at 2 weeks (mg/mL) |
| --- | --- |
| C[C@@H]1CCC[C@H](n2cnc(-c3cc(Cl)ccc3-n3cc(Cl)nn3)cc2=O)c2cc(ccn2)-c2c(cnn2C(F)F)NC1=O [P1.Acetone solvate] | 162 |

----------
- Protocol notes: Solubility of milvexian forms in organic solvent systems
- Format: physicochemical
- Condition info: 80/20 DCM/MeOH, 40 °C, organic solvent or mixture, 80/20 DCM/MeOH; temperature 40; read-out: Solubility in mg/mL solution
Endpoint: solubility

| Structure smiles string | Measured value |
| --- | --- |
| C[C@@H]1CCC[C@H](n2cnc(-c3cc(Cl)ccc3-n3cc(Cl)nn3)cc2=O)c2cc(ccn2)-c2c(cnn2C(F)F)NC1=O | > 200 mg/mL |

----------
- Protocol notes: Solubility of milvexian forms in organic solvent systems
- Format: physicochemical
- Condition info: 70/30 DCM/MeOH, 20 °C, organic solvent or mixture, thermodynamic from solid, 70/30 DCM/MeOH; 20° C.; 24 hours; read-out: Solubility in mg/mL solution 24 hours

| Molecule | solubility at 24 hours, mg/mL |
| --- | --- |
| C[C@@H]1CCC[C@H](n2cnc(-c3cc(Cl)ccc3-n3cc(Cl)nn3)cc2=O)c2cc(ccn2)-c2c(cnn2C(F)F)NC1=O [FORM A] | 221 |
